System: BT-549 breast
Assay: NCI-60 one-dose screen, 48 h
Details: 10 µM unless noted
Compounds without any hit were thinned out: in the full panel of roughly 83,000, 20% have a hit. Calls of active or inactive are those of the source. How the source made its calls: active means growth percent below 10; inactive means the rest.
Log the outcome using a class from 1 (yes) (active), 0 (no) (inactive)

Lookup: Query: recorded result category for `CCOc1ccc(-c2nc3ccc(-c4nc5ccc(N6CCN(C)CC6)cc5[nH]4)cc3[nH]2)cc1OCC` in this test
Found: 1 (yes)

Lookup: Entry to check: `c1ccc2c(c1)nc(-n1ccnc1)c1nc3ccccc3n12`
Found: 0 (no)

Lookup: Entry to check: `COc1ccc(-c2nc3sccn3c2/C=C/C(=O)c2c[nH]c3ccccc23)cc1`
Found: 0 (no)

Lookup: Entry to check: `Cc1c(C(=O)O[C@H]2[C@@H]3[C@H](C)CC[C@H]3[C@]3(C)O[C@@]2(C2CCCCC2)C[C@H]3OC(=O)CO)ccc2ccccc12`
Found: 0 (no)

Lookup: Entry to check: `CN(C)c1ccc2cc(-c3ccc(Cl)c(Cl)c3)c(N)nc2c1`
Found: 0 (no)

Lookup: Entry to check: `O=C(Nc1ccc(N2CCCCC2)c(Cl)c1)c1ccc(Br)o1`
Found: 0 (no)

Lookup: Entry to check: `COc1ccc(OC)c(/C=C2\COc3ccc(O)cc3C2=O)c1`
Found: 0 (no)

Lookup: Entry to check: `Cn1ccnc1C(=O)/C=C/c1ccc(C(=O)Nc2ccc(S(F)(F)(F)(F)F)cc2)cc1`
Found: 0 (no)

Lookup: Entry to check: `CCOC(=O)c1sc(-c2ccc(OS(=O)(=O)c3ccc(C(C)(C)C)cc3)c(C=O)c2)nc1C`
Found: 0 (no)

----------
Tested on: MOLT-4 leukemia
Assay: NCI-60 one-dose screen, 48 h
Conditions: 10 µM unless noted
The panel holds about 83,000 compounds, 20% with a hit somewhere; the sample as a whole holds those more often. Calls of active or inactive are those of the source. How the source made its calls: active means growth percent below 10; inactive means the rest.
Log the outcome using a class from T (active), F (inactive)

Lookup: Query: recorded result category for `COc1cc2c(O)n(CCCn3ccnc3)c3c4cnc5cccc(c(=O)c3c2cc1OC)c54` in this test
Found: T

Lookup: Entry to check: `NS(=O)(=O)Oc1ccc(-c2sc3cc(O)ccc3c2C(=O)c2ccc(OCCN3CCCCC3)cc2)cc1`
Found: F

Lookup: Entry to check: `COC(=O)[C@]12CC[C@@H](C)[C@H](C)[C@@H]1C1=CC[C@@H]3[C@@]4(C)C(C=O)=C[C@@](C)(CO)C4=CC[C@@]3(C)[C@]1(C)CC2`
Found: T

Lookup: Entry to check: `CC(=O)C(C(C)=O)c1nc2sc3cc(Cl)ccc3n2c(=N)c1C#N`
Found: F

----------
Test system: NCI/ADR-RES ovarian
Test: NCI-60 one-dose screen, 48 h
Conditions: 10 µM unless noted
Compounds without any hit were thinned out: in the full panel of roughly 83,000, 20% have a hit. Activity calls are given as the source filed them. The calls were made as follows: active = growth percent below 10; inactive = the rest.
Log the outcome using a class from Y (active), N (inactive)

Lookup: Query: recorded result category for `C[C@@H](C[C@H](CCOCc1cccnc1)c1ccccc1)c1cc2ccccc2o1` in this test
Found: N

Lookup: Entry to check: `COc1ccc(N=c2nc3sc4cc(Cl)ccc4n3c(N)c2C#N)cc1`
Found: N

Lookup: Entry to check: `COC(=O)CNC(=O)C(=O)c1c(O)c(O)c(C(C)C)c2cc(C)c(-c3c(C)cc4c(C(C)C)c(O)c(O)c(C(=O)C(=O)NCC(=O)OC)c4c3O)c(O)c12`
Found: N

Lookup: Entry to check: `COc1ccc(Cn2cnc3cc(C(=O)Nc4cccc5ccccc45)ccc32)c(OC)c1`
Found: Y

Lookup: Entry to check: `O=C(c1ccccc1)c1ccc(Cl)c([N+](=O)[O-])c1`
Found: N

Lookup: Entry to check: `CC(=O)c1cc2c(o1)C(=O)c1ccccc1C2=O`
Found: Y

Lookup: Entry to check: `CNC(=O)c1c(NC(=O)c2ccc(C(C)(C)C)cc2)sc2c1CCC(=O)C2`
Found: Y

Lookup: Entry to check: `C=C1C(=O)O[C@H]2[C@H]1CC/C(COC(=O)/C=C\C(=O)NCc1ccc(Cn3c(=O)sn(CCCC)c3=O)cc1)=C\CC[C@@]1(C)O[C@@H]21`
Found: Y

Lookup: Entry to check: `C[C@@H]1C(=O)N(C[C@H](Cc2ccccc2)NC(=O)OCc2ccccc2)[C@]1(Cc1ccccc1)C(=O)OC(C)(C)C`
Found: N

Lookup: Entry to check: `N[C@H]1CCC[C@@H]1NCCCCN1C(=O)c2cccc3cccc(c23)C1=O`
Found: N

Lookup: Entry to check: COc1ccc(C2CC(c3ccccc3)=NN2c2nc(C)c(C(C)=O)s2)cc1 (stereo not given)
Found: N

Lookup: Entry to check: `O=C(Oc1ccc[nH]c1=O)c1cc([N+](=O)[O-])cc([N+](=O)[O-])c1`
Found: N

Lookup: Entry to check: `COc1ccc(/C=N/NC(=O)Cn2c(-c3ccc(S(C)(=O)=O)cc3)nc3cc(Cl)ccc32)cc1`
Found: Y

Lookup: Entry to check: O=C(O)C1C[C@](O)(c2ccc(F)cc2)[C@@H](c2ccc(F)cc2)O1 (stereo not given in full)
Found: N

Lookup: Entry to check: COc1ccc(-n2sc(=O)n(Cc3ccc(COC(=O)C(C)c4ccc(CC(C)C)cc4)cc3)c2=O)cc1 (stereo not given)
Found: N

Lookup: Entry to check: `Clc1ccc(/C=N\N=c2\scc(-c3ccc(Cl)cc3)n2/N=C/c2ccc(Cl)cc2)cc1`
Found: N

Lookup: Entry to check: `COC(=O)[C@]12CC[C@@H](C)[C@H](C)[C@@H]1C1=CC[C@@H]3[C@@]4(C)C(C=O)=C[C@@](C)(CO)C4=CC[C@@]3(C)[C@]1(C)CC2`
Found: N

Lookup: Entry to check: CC(C)CCC[C@@H](C)[C@H]1CCC2C3=CCC4C(=O)C=CC(=O)C4C3CC[C@@]21C (stereo not given in full)
Found: Y

Lookup: Entry to check: O=[N+]([O-])c1ccccc1C(O)Cc1ccc2ccccc2n1 (stereo not given)
Found: N

Lookup: Entry to check: `CN1CCN(C(=O)[C@]23CCC(C)(C)C[C@@H]2C2=CC[C@@H]4[C@@]5(C)Cc6c([nH]c7ccccc67)C(C)(C)[C@@H]5CC[C@@]4(C)[C@]2(C)CC3)CC1`
Found: N

Lookup: Entry to check: CCC(=O)OC1=C(C)SC2=NC(c3ccc(Cl)c(Cl)c3)=CC(c3cc(OC)c(OC)c(OC)c3)N21 (stereo not given)
Found: N

Lookup: Entry to check: `COc1cc2oc(-c3cccc(C(=O)Nc4ccc(C#N)cc4)c3)cc(=O)c2c(O)c1OC`
Found: N

Lookup: Entry to check: `CC(=O)NCC(=O)Nc1ccc(-c2nnc3ccccn23)nc1.CC(=O)NCC(=O)Nc1ccc(-c2nnc3ccccn23)nc1.[Pt+2]`
Found: N

Lookup: Entry to check: `CCN(CC)c1ccc(Nc2ccc(CC(=O)c3ccccc3)cc2)cc1`
Found: N

Lookup: Entry to check: `Cc1nc2ccccc2c(/C=C/c2ccc(Cl)cc2)c1C(=O)/C=C/c1ccc(Cl)cc1`
Found: Y

Lookup: Entry to check: `CC(=[N-])N1CCC[C@@H](Nc2c3ccccc3nc3ccccc23)C1.[Cl][Pt].[NH-]CCC[NH-]`
Found: N

Lookup: Entry to check: `CCNCCNc1cc(-c2ccc(C#N)cc2)c(C#N)c2nc3ccccc3n12`
Found: N

Lookup: Entry to check: `Cn1cc(-c2ccc3ncc(-c4ccc(CC(=O)Nc5cc(C(C)(C)C)nn5C)cc4)cc3c2)cn1`
Found: Y

Lookup: Entry to check: `Cc1[nH]c(-c2nc3ccccc3[nH]2)c(C)c1C(=O)N1CCOCC1`
Found: N

Lookup: Entry to check: `CCCCCCCCc1cc[n+](CC(=O)c2ccc(Br)cc2)cc1`
Found: N

Lookup: Entry to check: COc1cc(C2C=C(c3cccc(NC(C)=O)c3)Nc3ncnn32)cc(OC)c1OC (stereo not given)
Found: N

Lookup: Entry to check: `CCCCCOC(=O)c1ccc(NC(=O)CNCC(C)C)cc1`
Found: N

Lookup: Entry to check: `COc1ccc(-c2cc(-c3cc(OC)ccc3O)[nH]c(=O)c2C#N)cc1`
Found: N

Lookup: Entry to check: `C=C1C(=O)O[C@H]2[C@H]1CC/C(C(=O)NCCCCCCCCNC(=O)/C1=C/CC[C@@]3(C)O[C@H]3[C@H]3OC(=O)C(=C)[C@@H]3CC1)=C\CC[C@@]1(C)O[C@@H]21`
Found: N

Lookup: Entry to check: `CN(C)c1ccc(/C=N/NC(=O)COc2cc(=O)n(C)c3ccccc23)cc1`
Found: N
